- Procedure summary: Volume of distribution at steady state in Sprague-Dawley rat at 1 mg/kg, iv
- Type: ADME, organism-based
- Design: dose 1 mg/kg, route intravenous
- Experimental setup: in vivo, read-out: Vdss
Measured metric: Vd

molecule=Cc1ccccc1Nc1nc2ccc(CC(=O)N3C[C@@H](F)C[C@H]3CO[C@H]3CC[C@H](C(=O)O)CC3)cc2o1 recorded_value="0.16 L/kg"

---

- Procedure summary: Cmax in Sprague-Dawley rat at 5 mg/kg, po
- Format: ADME, organism-based
- Parameters: dose 5 mg/kg, route oral
- Experimental setup: in vivo
Measured metric: Cmax (ng/mL)

molecule=Cc1ccccc1Nc1nc2ccc(CC(=O)N3C[C@@H](F)C[C@H]3CO[C@H]3CC[C@H](C(=O)O)CC3)cc2o1 measured_metric=Cmax units_of_measure=ng/mL recorded_value=10400

Values from ChEMBL document CHEMBL1143341
